Test system Moraxella catarrhalis (ATCC 8176), MIC listed for each of the compounds.
// units = µg/mL; emit number, no label

# example entries with known answers
[
  {
    "Compound": "COc1ccc2ncc(C#N)c(CCN3[C@@H]4CC[C@H]3CC(NCc3ccc([N+](=O)[O-])s3)C4)c2c1 (some centres unmarked)",
    "Result": 2
  },
  {
    "Compound": "COc1ccc2ncc(C#N)c(CCN3CCC(NCc4cc(C)cc([N+](=O)[O-])c4C)CC3)c2c1",
    "Result": 0.5
  },
  {
    "Compound": "COc1ccc2ncc(C#N)c(CCN3CCC(NCc4ccc(OC)c([N+](=O)[O-])c4)CC3)c2c1",
    "Result": 0.25
  }
]

Write down the reported MIC of COc1ccc2ncc(C#N)c(CCN3CCC(NCc4ccc([N+](=O)[O-])cc4)CC3)c2c1 , test system: Moraxella catarrhalis (ATCC 8176).
2

Write down the reported MIC of COc1ccc2ncc(C#N)c(N3CC(N4CCC(NCc5ccc6c(c5)OCCO6)CC4)C3)c2c1 , test system: Moraxella catarrhalis (ATCC 8176).
8

Write down the reported MIC of COc1ccc2ncc(=O)n(CCN3CCC(NCc4ccc(Br)c([N+](=O)[O-])c4)CC3)c2c1 , test system: Moraxella catarrhalis (ATCC 8176).
4

Write down the reported MIC of CCc1ccc(CNC2CCN(CCc3c(C#N)cnc4ccc(OC)cc34)CC2)cc1[N+](=O)[O-] , test system: Moraxella catarrhalis (ATCC 8176).
0.25

Write down the reported MIC of COc1ccc2ncc(C#N)c(CCN3C4CCC3CC(NCc3cc5c(cc3F)OCCO5)C4)c2c1 (centres unmarked) , test system: Moraxella catarrhalis (ATCC 8176).
4

Write down the reported MIC of COc1ccc2ncc(C#N)c(CCN3CCC(NCc4cc([N+](=O)[O-])ccn4)CC3)c2c1 , test system: Moraxella catarrhalis (ATCC 8176).
4

###

# Measurement Description: Single dose pharmacokinetics in male Swiss albino mice
# Type: in vivo
# Experimental Conditions: mouse, in vivo, iv, 5 mg/kg
Readout: AUC(0-t) (ng·h/mL)
// units = ng·h/mL; emit number, no label

# example entries with known answers
[
  {
    "Structure Notation": "Cc1ccc(CNC2CCN(CCn3c(=O)cnc4ccc(F)cc43)CC2)cc1F",
    "Readout": "AUC(0-t)",
    "Result": 242
  },
  {
    "Structure Notation": "Cc1ccc(CNC2CCN(CCn3c(=O)cnc4ccc(F)cc43)CC2)cc1[N+](=O)[O-]",
    "Readout": "AUC(0-t)",
    "Result": 402
  },
  {
    "Structure Notation": "Cc1ccc(CNC2CCN(CCn3c(=O)cnc4ccc(Cl)nc43)CC2)cc1[N+](=O)[O-]",
    "Readout": "AUC(0-t)",
    "Result": 497
  }
]

Now turn to the next molecule.
I have this molecule here, COc1ccc2ncc(=S)n(CCN3CCC(NCc4ccc(C)c([N+](=O)[O-])c4)CC3)c2c1 , and I need its recorded AUC(0-t).
527

###

Below, each of the compounds is paired with its reported MIC value.
# Test system: Pseudomonas ATCC 27853
# Measurement Description: MIC by microbroth dilution, Pseudomonas ATCC 27853
# Assay type: cell-based
# Experimental Conditions: ATCC27853, Formula II compounds, read-out: Minimum Inhibitory Concentration (MIC) Pseudomonas ATCC 27853
// units = µg/mL; emit number, no label

# example entries with known answers
[
  {
    "Compound": "Cc1ccc(CNC2CCN(CCn3c(=O)cnc4ccc(C#N)cc43)CC2)cc1F [VT-03-00103]",
    "Measurement Units": "µg/mL",
    "MIC": 32
  },
  {
    "Compound": "Cc1ccc(CNC2CCN(CCn3c(=O)cnc4ccc(Cl)nc43)CC2)cc1C#N [VT-03-00131]",
    "Measurement Units": "µg/mL",
    "MIC": 16
  },
  {
    "Compound": "Cc1ccc(CNC2CCN(CCn3c(=O)cnc4ccc(F)cc43)CC2)cc1C#N [VT-03-00117]",
    "Measurement Units": "µg/mL",
    "MIC": 16
  },
  {
    "Compound": "COc1ccc2ncc(=S)n(CCN3CCC(NCc4ccc(C)c(C#N)c4)CC3)c2c1 [VT-03-00132]",
    "Measurement Units": "µg/mL",
    "MIC": 32
  },
  {
    "Compound": "Cc1ccc(CNC2CCN(CCn3c(=O)cnc4ccc(F)cc43)CC2)cc1F [VT-03-00122]",
    "Measurement Units": "µg/mL",
    "MIC": 16
  }
]

Now turn to the next compound.
I have this compound here, Cc1ccc(CNC2CCN(CCn3c(=O)cnc4ccc(F)cc43)CC2)cc1[N+](=O)[O-] [VT-03-00113] , and I need its recorded MIC.
8

###

# Measurement Description: Single dose pharmacokinetics in male Swiss albino mice
# Type: in vivo
# Experimental Conditions: mouse, in vivo, oral, 10 mg/kg
Readout: Cmax (ng/mL)
// units = ng/mL; emit number, no label

[
  {
    "Structure Notation": "Cc1ccc(CNC2CCN(CCn3c(=O)cnc4ccc(Cl)nc43)CC2)cc1[N+](=O)[O-]",
    "Readout": "Cmax",
    "Result": 18.6
  },
  {
    "Structure Notation": "Cc1ccc(CNC2CCN(CCn3c(=O)cnc4ccc(F)cc43)CC2)cc1F",
    "Readout": "Cmax",
    "Result": 28.1
  },
  {
    "Structure Notation": "Cc1ccc(CNC2CCN(CCn3c(=O)cnc4ccc(F)cc43)CC2)cc1[N+](=O)[O-]",
    "Readout": "Cmax",
    "Result": 15.6
  }
]

I have this compound here, COc1ccc2ncc(=S)n(CCN3CCC(NCc4ccc(C)c([N+](=O)[O-])c4)CC3)c2c1 , and I need its recorded Cmax.
97

###

Below, each of the compounds is paired with its reported half-life value.
# Measurement Description: Single dose pharmacokinetics in male Swiss albino mice
# Format: in vivo
# Experimental Conditions: mouse, in vivo, iv, 5 mg/kg
Reply with the number and its unit after it.

I have this compound here, Cc1ccc(CNC2CCN(CCn3c(=O)cnc4ccc(F)cc43)CC2)cc1F , and I need its recorded half-life.
29.4 min

I have this compound here, COc1ccc2ncc(=S)n(CCN3CCC(NCc4ccc(C)c([N+](=O)[O-])c4)CC3)c2c1 , and I need its recorded half-life.
120 min

I have this compound here, Cc1ccc(CNC2CCN(CCn3c(=O)cnc4ccc(Cl)nc43)CC2)cc1[N+](=O)[O-] , and I need its recorded half-life.
22.2 min

I have this compound here, Cc1ccc(CNC2CCN(CCn3c(=O)cnc4ccc(F)cc43)CC2)cc1[N+](=O)[O-] , and I need its recorded half-life.
22.2 min

###

Below, each of the compounds is paired with its reported inhibition at 1 µM value.
# Measured Target: ciprofloxacin resistant recombinant Gyrase protein (with mutation S83L) (Escherichia coli, UniProt P0AES4+P0AES6, S83L)
# Construct: purchased Inspiralis
# Measurement Description: Gyrase supercoiling assay with ciprofloxacin resistant Gyrase (S83L)
# Format: biochemical
# Experimental Conditions: read-out: Target specificity: % inhibition of supercoiling activity
Reply with the number and its unit after it.

[
  {
    "Compound": "Cc1ccc(CNC2CCN(CCn3c(=O)cnc4ccc(Cl)nc43)CC2)cc1[N+](=O)[O-] [VT-03-00118]",
    "inhibition at 1 µM": "89%"
  },
  {
    "Compound": "Cc1ccc(CNC2CCN(CCn3c(=O)cnc4ccc(F)cc43)CC2)cc1[N+](=O)[O-] [VT-03-00113]",
    "inhibition at 1 µM": "94%"
  },
  {
    "Compound": "COc1ccc2ncc(=O)n(CCN3CCC(NCc4ccc(Cl)c([N+](=O)[O-])c4)CC3)c2c1 [VT-03-00128]",
    "inhibition at 1 µM": "51%"
  },
  {
    "Compound": "COc1ccc2ncc(=O)n(CCN3CCC(NCc4ccc(C)c(F)c4)CC3)c2n1 [VT-03-00101]",
    "inhibition at 1 µM": "92.3%"
  },
  {
    "Compound": "Cc1ccc(CNC2CCN(CCn3c(=O)cnc4ccc(Br)cc43)CC2)cc1F [VT-03-00102]",
    "inhibition at 1 µM": "95.3%"
  },
  {
    "Compound": "Cc1ccc(CNC2CCN(CCn3c(=O)cnc4ccc(F)cc43)CC2)cc1C#N [VT-03-00117]",
    "inhibition at 1 µM": "97.5%"
  },
  {
    "Compound": "O=c1cnc2ccc(F)cc2n1CCN1CCC(NCc2ccc(Cl)c([N+](=O)[O-])c2)CC1 [VT-03-00116]",
    "inhibition at 1 µM": "94.3%"
  },
  {
    "Compound": "Cc1ccc(CNC2CCN(CCn3c(=O)cnc4ccc(C#N)cc43)CC2)cc1F [VT-03-00103]",
    "inhibition at 1 µM": "87.5%"
  }
]

I have this compound here, Cc1ccc(CNC2CCN(CCn3c(=O)cnc4ccc(Cl)nc43)CC2)cc1F [VT-03-00111] , and I need its recorded inhibition at 1 µM.
87.6%

I have this compound here, COc1ccc2ncc(=S)n(CCN3CCC(NCc4ccc(C)c([N+](=O)[O-])c4)CC3)c2c1 [VT-03-00127] , and I need its recorded inhibition at 1 µM.
72%

I have this compound here, Cc1ccc(CNC2CCN(CCn3c(=O)cnc4ccc(F)cc43)CC2)cc1F [VT-03-00122] , and I need its recorded inhibition at 1 µM.
97.1%
